- Test system: HEL
- conditions: 72 h
List of IC50 (cell viability) values.

INSERT INTO assay_data (molecule, reported_value) VALUES
  ('C#Cc1cnc(O)nc1O [Eniluracil]', '> 10 µM'),
  ('Cc1noc2c1-c1ccccc1C(c1ccc(Cl)cc1)=N[C@H]2CC(N)=O [CPI-0610]', '1.52 µM'),
  ('COc1cc2c(NC3CCN(C)CC3)nc(N3CCCN(C)CC3)nc2cc1OCCCN(C)C [UNC0224]', '> 10 µM'),
  ('Nc1ncnc2c1ncn2[C@@H]1O[C@H](CSCC[C@H](N)C(=O)O)[C@@H](O)[C@H]1O [S-Adenosyl Homocysteine]', '> 10 µM'),
  ('CC(C(=O)O)c1cccc(C(=O)c2ccccc2)c1 (configuration not stated) [Ketoprofen]', '> 10 µM');

Below: the item to evaluate.
Bench note: what IC50 (cell viability) did CC(/C=C1\SC(=S)N(CC(=O)O)C1=O)=C\c1ccccc1 [Epalrestat] show?
> 10 µM

Data origin: the supplement of paper PMC8671470
